Exercise: for every item that follows, state its recorded growth.
Test system: MDA-MB-468 breast
Assay: NCI-60 one-dose screen, 48 h (100 = growth as untreated, 0 = no growth, -100 = all killed)
Conditions: 10 µM unless noted
Protocol: Growth inhibition of the MDA-MB-468 human Breast tumor cell line is measured as a screen for anti-cancer activity. Cells are grown in 96 well plates and exposed to the test compound for 48 hours. Compounds are tested at a single concentration, which is 10^-5 M for most compounds. The reported endpoint is percent growth (GI% or GIPRCNT), where numbers from 0 - 100% represent growth inhibition, and numbers from -100% - 0 represent cell death. […]
About 83,000 compounds went through this panel and 20% of them were active in at least one assay; those are over-represented in the sample as a whole.
Numbers only, in %.

molecule	val
CC[C@@]12CC(C(=O)OC)=C3Nc4cc5c(cc4[C@@]34CCN(C[C@H]3O[C@H]31)[C@@H]24)[C@@H]1[C@H](O5)[C@@H](O)[C@@]2(CC)CC(C(=O)OC)=C3Nc4cc(O)ccc4[C@@]34CCN1[C@@H]24	-78.5
COc1ccc2c(c1)C(Sc1ccc(Cl)cc1)c1c(nc(N)c(C#N)c1N)O2 (stereo not drawn)	77.9
Nc1nn2c(-c3cc4cc(Br)ccc4oc3=O)ccnc2c1N=Nc1ccc(Br)cc1	39
CCCCCCCCCc1ccc(C(=O)Nc2cc(C)ccc2C(=O)OC)cc1	118
N#C/C(=C/c1ccc(Cl)cc1)c1nnc(NC(=O)c2ccc(-n3c(=O)[nH]c4ccccc4c3=O)cc2)s1	34.9
COc1ccc(NC(=O)Cn2c(/C=C/c3cccc(Br)c3)nc3ccccc3c2=O)cc1	77.6
O=C(N/N=C/c1ccc(Cl)cc1)c1ccc(OCc2nc3ccc(Cl)cc3[nH]2)cc1	52.4

Okay, now this molecule:
Qu. Record request: growth value, item `CN(C)c1nc(NCCNS(=O)(=O)c2ccc(C(=O)/C=C/c3ccccc3)cc2)nc(N2CCOCC2)n1`
Ans. 52.1

###

System: HT29 colon
Assay: NCI-60 one-dose screen, 48 h (100 = growth as untreated, 0 = no growth, -100 = all killed)
Conditions: 10 µM unless noted
Compounds without any hit were thinned out: in the full panel of roughly 83,000, 20% have a hit.
measured.attribute: growth (%)
Give bare numbers, in %.

Known results for molecules:
molecule	growth / %
COc1ccc2[nH]c(O)c(N=Nc3nc(-c4ccc(Cl)cc4)cs3)c2c1	-18.4
CC(=O)Nc1ccc(S(=O)(=O)Nc2ccc(-c3ccc4c(c3)NC(=O)/C4=C\c3ccc[nH]3)cc2)cc1	118
c1n[nH]cc1-c1nc2ccc3[nH]ncc3c2c2c1CC1(CCOCC1)CC2	25.9
COc1cc(-c2ccc3ncnc(N4CCc5ccc(Cl)cc54)c3c2)cnc1Cl	15.1
COC(=O)c1cccc(Oc2ccc(NC(=O)Nc3cc(C(F)(F)F)ccc3F)cc2)c1	62.9

Fill in growth for each of the 3 molecules listed.
1. O=C(N/N=C/c1ccc(-c2cccc([N+](=O)[O-])c2)s1)c1[nH]c2ccc(Br)cc2c1-c1ccccc1
2. COc1ccc2[nH]cc(-c3cc4nc(-c5cn(C)c6ncc(Br)cc56)cc(N)n4n3)c2c1
3. N#C/C(=C/c1ccc([N+](=O)[O-])cc1)c1nnc(NC(=O)c2ccc(-n3c(=O)[nH]c4ccccc4c3=O)cc2)s1

Ans.
[109, -76.1, 110]

###

Tested on: UACC-257 melanoma
Assay: NCI-60 one-dose screen, 48 h
Conditions: 10 µM unless noted
Compounds without any hit were thinned out: in the full panel of roughly 83,000, 20% have a hit. Calls of active or inactive are those of the source. How the source made its calls: active means growth percent below 10; inactive means the rest.
Outcomes you can answer with include only these: True for active, False for inactive

Answered cases to consult:
compound	class.assignment
Clc1ccc2c(NCCNC34CC5CC(CC(C5)C3)C4)ccnc2c1	True
c1n[nH]cc1-c1nc2ccc3[nH]ncc3c2c2c1CC1(CCOCC1)CC2	False

Qu. Returns: the outcome recorded for Clc1ccc(CNc2nc(SCCN3CCOCC3)nc3c2cnn3CC(Cl)c2ccc(Br)cc2)cc1 (stereo not drawn) in this assay.
Ans. False

Qu. `O=c1[nH]c2ccccc2cc1CSc1ccccc1Nc1nccc(-c2ccc3c(c2)OCO3)n1` ?
Ans. False

Qu. `CCOc1ccccc1NC(=O)N/C(N)=N/c1nc2ccccc2s1` ?
Ans. False

Qu. `O=C(N/N=C/c1ccc(Cl)o1)c1[nH]c2ccc(Br)cc2c1-c1ccccc1` ?
Ans. False

Qu. `CN1C(=O)/C(=C\C(=O)c2cc3ccccc3oc2=O)c2ccccc21` ?
Ans. False

Qu. `Cn1cc(-c2cc(N)n3nc(-c4c[nH]c5ccc(Cl)cc45)cc3n2)c2cc(Br)cnc21` ?
Ans. True

Qu. `COc1ccc(-c2cc(C(=O)OCc3ccc(Br)cc3)nn2-c2ccc(S(C)(=O)=O)cc2)cc1OC` ?
Ans. False

###

Test system: IGROV1 ovarian
Test: NCI-60 one-dose screen, 48 h (100 = growth as untreated, 0 = no growth, -100 = all killed)
Conditions: 10 µM unless noted
The panel holds about 83,000 compounds, 20% with a hit somewhere; the sample as a whole holds those more often.
Grouping key: growth. Bins: low interval: < 50%; middle interval: ≥ 50% and < 80%; high interval: ≥ 80%

Answered cases to consult:
molecule	class.assignment
CCC1(OC(=O)c2ccccc2SSCCOC(=O)CCCCC2SCC3NC(=O)NC32)C(=O)OCc2c1cc1n(c2=O)Cc2cc3ccccc3nc2-1 (centres undefined)	middle interval
C#CCCCNCCNc1ccnc2cc(Cl)ccc12	high interval
COc1ccc(N=Nc2c(N)nn3c(N)c(C#N)c(-c4ccc(C)cc4)nc23)cc1	low interval

Qu. For this molecule, which bin applies? COc1ccc2c(c1)C(Sc1ccc(F)cc1)c1c(nc(N)c(C#N)c1N)O2 (centres undefined)
Ans. middle interval

Qu. `Cc1ccc(C(=O)Nc2cc(-c3ccncc3)cc(C(F)(F)F)c2)cc1C#Cc1cnc2cccnn12` ?
Ans. middle interval

###

Test system: MDA-MB-468 breast
Assay: NCI-60 one-dose screen, 48 h
Details: 10 µM unless noted
The panel holds about 83,000 compounds, 20% with a hit somewhere; the sample as a whole holds those more often. The source made the active and inactive calls. Rule for the calls: active = growth percent below 10; inactive = the rest.
Outcomes you can answer with include only these: Yes for active, No for inactive

Answered cases to consult:
compound	class.assignment
COc1cc(C2CC(c3ccc(C(F)(F)F)cc3)=Nc3c(N)nc(N)nc3N2)ccc1Oc1nc(Nc2ccc(F)cc2)nc(N(C)C)n1 (stereo not drawn)	Yes
Cc1nn(-c2ccccc2)c2nc(C)n(CC(=O)N/N=C/c3cccc([N+](=O)[O-])c3)c(=O)c12	No
O=C(Nc1ccc(F)cc1)Nc1nc2ccc([N+](=O)[O-])cc2s1	Yes
COC(=O)c1cc(C(=O)C(F)(F)F)n2c3ccccc3c3ccccc3c12	No
COc1nc(N)ncc1-c1ccc2ncnc(N3CCc4cc(F)c(Cl)cc43)c2c1	Yes
O=C(c1ccc(Cl)cc1)C1[C@H](c2ccccc2Cl)[C@@H](c2ccccc2)NC12C(=O)Nc1ccc(Cl)cc12 (stereo partly drawn)	Yes
Cc1cc(Cl)ccc1NC(=O)Nc1ccc(-c2ccc3c(c2)NC(=O)/C3=C\c2ccc[nH]2)cc1	Yes
COc1ccc(CCC2NCCc3c(Br)c4c(c(OC)c32)OCO4)cc1 (stereo not drawn)	Yes
CCCCNc1ccc2c3c(cccc13)C(=O)N(c1cccc(-c3nn(-c4ccccc4)cc3-c3nc4ccccc4s3)c1)C2=O	No
COc1cc(CNC(=O)C[C@H](C)CCC=C(C)C)ccc1OCc1cn(-c2ccc(Br)cc2)nn1	No

Qu. Returns: the outcome recorded for Cc1ccc(C2CC(c3ccc(S(=O)(=O)NCCNc4nc(N(C)C)nc(N5CCOCC5)n4)cc3)=Nc3c(N)nc(N)nc3N2)cc1 (stereo not drawn) in this assay.
Ans. No

Qu. `Cc1ccc2nc(SCc3ccccc3F)n(-c3ccccc3)c(=O)c2c1` ?
Ans. No

Qu. `COc1cccc(C(N)=Nc2ccc(OCCCCCCCCn3cncn3)cc2)c1` ?
Ans. No

Qu. `O=C(N/N=C/c1ccc(Br)o1)c1[nH]c2ccc(Br)cc2c1-c1ccccc1` ?
Ans. Yes

###

Tested on: DU-145 prostate
Experiment: NCI-60 one-dose screen, 48 h (100 = growth as untreated, 0 = no growth, -100 = all killed)
Conditions: 10 µM unless noted
About 83,000 compounds went through this panel and 20% of them were active in at least one assay; those are over-represented in the sample as a whole.
Respond with 1.0 for growth values of 70% and above, 0.0 for values below.

Answered cases to consult:
compound	target.system	class.assignment
COc1ccc(C2=NN(C(=O)[C@H]3[C@@H](c4ccco4)c4sc(=O)[nH]c4S[C@@H]3C)C(c3ccc4ccccc4c3)C2)cc1 (some centres undefined)	DU-145 prostate	0.0
O=C(Nc1ccc(S(=O)(=O)N2CCCCC2)cc1)C(Cl)Cl	DU-145 prostate	1.0

Consider the additional compound presented here.
Qu. Say whether `Nc1cc(-c2c[nH]c3ccc(Br)cc23)nc2cc(-c3c[nH]c4ccccc34)nn12` shows growth of 70% or more.
Ans. 0.0
